- Tested on: MDA-MB-435 melanoma
- assay: NCI-60 one-dose screen, 48 h
- conditions: 10 µM unless noted
The panel holds about 83,000 compounds, 20% with a hit somewhere; the sample as a whole holds those more often. Active and inactive are the calls of the source. How the source made its calls: active means growth percent below 10; inactive means the rest.
Outcomes: 1 (active), -1 (inactive)

{"compound": "COC1=CC=CC2(OC)C3(O)CCCc4cccc(c43)N3C(=O)COC132 (centres undefined)", "groupLabel": -1}
{"compound": "S=c1ssnc1-c1cc2ccccc2o1", "groupLabel": -1}
{"compound": "O=C1Nc2ccc(Br)cc2/C1=N\\N=C/c1cn(Cc2ccccc2)c2ccccc12", "groupLabel": -1}
{"compound": "CC(C)(C)c1ccc(O)c(Cc2cc(C(C)(C)C)ccc2O)c1", "groupLabel": -1}
{"compound": "Cc1nc(C)c(C)nc1C", "groupLabel": -1}
{"compound": "Cc1nc2sc(C(=O)Nc3cccc4ccccc34)c(N)c2cc1C(C)O (centres undefined)", "groupLabel": 1}
{"compound": "O=C1NC(c2ccc(F)cc2)N=C2C(c3ccccc3)=NOC12 (centres undefined)", "groupLabel": -1}
{"compound": "N#CC(C#N)=C1NC(c2ccccc2)=C(c2ccccc2)C(c2ccccc2Cl)=C1C#N", "groupLabel": -1}
{"compound": "Cc1nnc(/N=C2\\NC(=O)/C(=C/c3ccc(N(C)C)cc3)S2)s1", "groupLabel": 1}
{"compound": "COc1ccc2nc(-c3ccc(Cl)cc3)cc(-c3nnc(SC/C(=N/O)c4ccccc4)o3)c2c1", "groupLabel": -1}
{"compound": "C=C(C)[C@@H]1CC[C@]2(C(=O)O)CC[C@]3(C)[C@H](CC[C@@H]4[C@@]5(C)C[C@@H](CC#Cc6ccccc6)C(=O)C(C)(C)[C@@H]5CC[C@]43C)[C@@H]12", "groupLabel": -1}
{"compound": "O=S(=O)(Nc1nccs1)c1ccc(Nc2nc(-c3ccncc3)cs2)cc1", "groupLabel": -1}
{"compound": "Nc1cc(N)c(S(=O)(=O)O)cc1N=Nc1cc([N+](=O)[O-])ccc1O", "groupLabel": -1}
{"compound": "CSc1nc(-c2ccc(F)cc2)c(C#N)c(N2CCOCC2)n1", "groupLabel": -1}
{"compound": "CCCCn1c(=O)c(/C=C/C(=O)/C=C/c2ccc(OC)cc2)cc2cc(Cl)ccc21", "groupLabel": -1}
{"compound": "C=C(C)[C@@H]1CC[C@]2(C(=O)n3ccnc3)CC[C@]3(C)[C@H](CC[C@@H]4[C@@]5(C)CCCNC(C)(C)[C@@H]5CC[C@]43C)[C@@H]12", "groupLabel": 1}
{"compound": "CC(C)C1=C[C@@]23CC[C@H]4[C@](C)(COCCC#N)CCC[C@]4(C)[C@H]2C[C@@H]1[C@@H]1[C@H]3[C@@H](OCCC#N)CC[C@@H]1OCCC#N", "groupLabel": -1}
{"compound": "COc1ccccc1C(=O)/C=C/c1cc2cccc(OC)c2[nH]c1=O", "groupLabel": 1}
{"compound": "C#C[C@@]1(O)[C@@H](CO)O[C@@H](n2cc(Cl)c3c(N)ncnc32)[C@@H]1O", "groupLabel": 1}
